Experiment: Stability of cannabinoid and Vitamin E components of Beverage 1 (AB White) stored at 8° C. and 21-25° C., LCMSMS over 570 days
Type: physicochemical
Conditions: beverage stored at 8° C., day 570
readout.name: Stability in AB White, 8° C. (content by LCMSMS) (µg/mL)
Write down the numeric answer in µg/mL and omit the unit.

Check out these entries, answers already filled in.
{"compound": "CCCCCc1cc(O)c(C/C=C(\\C)CCC=C(C)C)c(O)c1", "experimental.value": 4.46}
{"compound": "CCCCCc1cc(O)c2c(c1)OC(C)(C)[C@@H]1CCC(C)=C[C@@H]21 [D9 THC, delta-9-tetrahydrocannabinol, reference compound]", "experimental.value": 11.21}
{"compound": "C=C(C)[C@@H]1CCC(C)=C[C@H]1c1c(O)cc(CCCCC)cc1O [CBD, cannabidiol, reference compound]", "experimental.value": 26.22}

Exercise: Give Stability in AB White, 8° C. (content by LCMSMS) for CCCc1cc(O)c2c(c1)OC(C)(C)[C@@H]1CCC(C)=C[C@@H]21 [THCV, delta-9-tetrahydrocannabivarin]
Solution: 3.30

Exercise: Give Stability in AB White, 8° C. (content by LCMSMS) for CCCCCc1cc(O)c2c(c1)OC1(C)CCC3C1C2C3(C)C (stereo not shown)
Solution: 0.503

Exercise: Give Stability in AB White, 8° C. (content by LCMSMS) for `C=C(C)[C@@H]1CCC(C)=C[C@H]1c1c(O)cc(CCC)cc1O`
Solution: 0.138

Exercise: Give Stability in AB White, 8° C. (content by LCMSMS) for `CCCCCc1cc(O)c2c(c1)OC(C)(C)c1ccc(C)cc1-2`
Solution: 2.56

Exercise: Give Stability in AB White, 8° C. (content by LCMSMS) for CCCCCc1cc(O)c2c(c1)OC(C)(CCC=C(C)C)C=C2 (stereo not shown)
Solution: 0.293

Exercise: Give Stability in AB White, 8° C. (content by LCMSMS) for `C=C(C)[C@@H]1CCC(C)=C[C@H]1c1c(O)cc(CCCCC)c(C(=O)O)c1O`
Solution: 1.60

Exercise: Give Stability in AB White, 8° C. (content by LCMSMS) for CCCCCc1cc2c(c(O)c1C(=O)O)[C@@H]1C=C(C)CC[C@H]1C(C)(C)O2 [D9 THCA, delta-9-tetrahydrocannabinolic acid]
Solution: 0.872

====

Assay: Stability of cannabinoid and Vitamin E components of Beverage 2 (AB Red) stored at 8° C. and 21-25° C., LCMSMS over 570 days
Conditions: 8° C., 25 days
Classify: 1 when Stability of Cannabinoids in AB Red is strictly less than 2 µg/mL; 0 when Stability of Cannabinoids in AB Red is not.

Below are worked cases with known answers.
{"compound": "C=C(C)[C@@H]1CCC(C)=C[C@H]1c1c(O)cc(CCC)cc1O", "assigned.label": 1}
{"compound": "C=C(C)[C@@H]1CCC(C)=C[C@H]1c1c(O)cc(CCCCC)c(C(=O)O)c1O", "assigned.label": 1}
{"compound": "CCCCCc1cc(O)c2c(c1)OC(C)(C)c1ccc(C)cc1-2", "assigned.label": 0}
{"compound": "CCCCCc1cc(O)c2c(c1)OC(C)(CCC=C(C)C)C=C2 (stereo not drawn)", "assigned.label": 1}
{"compound": "CCCCCc1cc(O)c2c(c1)OC(C)(C)[C@@H]1CCC(C)=C[C@@H]21 [D9 THC, delta-9-tetrahydrocannabinol, reference compound]", "assigned.label": 0}

Exercise: Record CCCCCc1cc(O)c2c(c1)OC1(C)CCC3C1C2C3(C)C (stereo not drawn) : is its Stability of Cannabinoids in AB Red strictly below 2 µg/mL?
Solution: 1

Exercise: Record CCCc1cc(O)c2c(c1)OC(C)(C)[C@@H]1CCC(C)=C[C@@H]21 [THCV, delta-9-tetrahydrocannabivarin] : is its Stability of Cannabinoids in AB Red strictly below 2 µg/mL?
Solution: 0

Exercise: Record `CCCCCc1cc(O)c(C/C=C(\C)CCC=C(C)C)c(O)c1` : is its Stability of Cannabinoids in AB Red strictly below 2 µg/mL?
Solution: 0

Exercise: Record CCCCCc1cc2c(c(O)c1C(=O)O)[C@@H]1C=C(C)CC[C@H]1C(C)(C)O2 [D9 THCA, delta-9-tetrahydrocannabinolic acid] : is its Stability of Cannabinoids in AB Red strictly below 2 µg/mL?
Solution: 1

Ref: patent US20240415914A1
